The entries below come with measured DC50 values attached.
# system tested: SMARCA4 (Homo sapiens)
# Construct: SMARCA2/SMARCA4 protein degradation selectivity in MV4-11 cells; endogenous in cells; host or cells: MV4-11
# Sequence (P51532 whole entry): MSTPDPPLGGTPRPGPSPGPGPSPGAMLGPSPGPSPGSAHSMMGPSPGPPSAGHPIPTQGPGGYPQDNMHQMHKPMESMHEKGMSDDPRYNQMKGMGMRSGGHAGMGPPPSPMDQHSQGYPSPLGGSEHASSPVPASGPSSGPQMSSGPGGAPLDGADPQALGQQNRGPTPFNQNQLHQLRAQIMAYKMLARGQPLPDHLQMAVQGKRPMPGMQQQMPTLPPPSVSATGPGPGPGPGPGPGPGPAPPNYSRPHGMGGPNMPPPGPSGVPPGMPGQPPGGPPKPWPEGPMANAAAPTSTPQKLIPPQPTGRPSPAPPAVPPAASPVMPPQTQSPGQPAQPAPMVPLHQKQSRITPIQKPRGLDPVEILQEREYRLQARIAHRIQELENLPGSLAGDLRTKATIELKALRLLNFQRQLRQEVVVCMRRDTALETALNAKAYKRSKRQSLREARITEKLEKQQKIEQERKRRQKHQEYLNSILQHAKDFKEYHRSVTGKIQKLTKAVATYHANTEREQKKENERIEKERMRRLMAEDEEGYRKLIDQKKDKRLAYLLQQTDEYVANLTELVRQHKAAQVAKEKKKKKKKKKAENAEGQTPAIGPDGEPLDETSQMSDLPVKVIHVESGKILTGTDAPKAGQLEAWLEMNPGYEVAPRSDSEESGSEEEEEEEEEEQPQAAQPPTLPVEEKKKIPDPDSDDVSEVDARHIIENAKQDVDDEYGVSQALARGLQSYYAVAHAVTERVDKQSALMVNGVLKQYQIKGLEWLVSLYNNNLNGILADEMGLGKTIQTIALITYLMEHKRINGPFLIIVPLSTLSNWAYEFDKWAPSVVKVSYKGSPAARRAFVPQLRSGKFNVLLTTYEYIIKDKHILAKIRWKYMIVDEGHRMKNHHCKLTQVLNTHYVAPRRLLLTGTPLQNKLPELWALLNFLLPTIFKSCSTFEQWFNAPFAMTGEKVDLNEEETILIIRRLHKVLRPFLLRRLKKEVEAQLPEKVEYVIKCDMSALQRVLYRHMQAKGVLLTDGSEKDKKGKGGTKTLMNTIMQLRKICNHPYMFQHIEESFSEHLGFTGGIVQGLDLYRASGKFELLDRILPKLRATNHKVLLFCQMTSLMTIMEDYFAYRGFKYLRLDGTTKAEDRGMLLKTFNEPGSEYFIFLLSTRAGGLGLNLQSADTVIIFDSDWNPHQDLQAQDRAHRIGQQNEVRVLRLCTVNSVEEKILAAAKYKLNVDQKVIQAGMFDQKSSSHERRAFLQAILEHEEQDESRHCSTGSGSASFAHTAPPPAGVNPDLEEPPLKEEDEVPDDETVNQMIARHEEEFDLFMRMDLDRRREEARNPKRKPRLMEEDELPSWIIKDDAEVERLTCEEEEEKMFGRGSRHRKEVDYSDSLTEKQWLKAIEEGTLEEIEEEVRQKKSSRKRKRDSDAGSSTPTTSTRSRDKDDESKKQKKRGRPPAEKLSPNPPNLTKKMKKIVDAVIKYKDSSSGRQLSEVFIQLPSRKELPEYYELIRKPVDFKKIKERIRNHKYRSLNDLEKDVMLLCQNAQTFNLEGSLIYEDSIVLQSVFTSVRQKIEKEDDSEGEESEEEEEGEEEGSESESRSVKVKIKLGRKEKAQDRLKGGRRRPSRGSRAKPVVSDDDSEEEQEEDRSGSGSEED
# test details: SMARCA4 Western blot degradation in MV4-11 cells
# Format: cell-based
# settings: MV4-11 cells, 24 h; read-out: SMARCA4 MSD MV411 degradation 24 h: Mean external-Abs DC50

| compound | DC50 |
| --- | --- |
| C#Cc1cc(Cl)c(CNC(=O)[C@@H]2C[C@@H](O)CN2C(=O)[C@@H](NC(=O)[C@H]2CC3(C2)C[C@H](N2CCC(N4CCC(N5CCN6c7cc(-c8ccccc8O)nnc7NC[C@H]6C5)CC4)CC2)C3)C(C)(C)C)c(OC)c1 (stereo partly shown) [I-329] | > 0.1 µM |
| C#Cc1ccc(CNC(=O)[C@@H]2C[C@@H](O)CN2C(=O)[C@@H](NC(=O)N2CC3(CC(N4CCC(N5CCC(N6CCc7[nH]c8nnc(-c9ccccc9O)cc8c7[C@@H]6C)CC5)CC4)C3)C2)C(C)(C)C)cc1 | > 0.1 µM |
| C#Cc1ccc(CNC(=O)[C@@H]2C[C@@H](O)CN2C(=O)[C@@H](NC(=O)[C@H]2CCC3(CC2)C[C@H](N2CCN(c4cnc(N5CCN6c7cc(-c8ccccc8O)nnc7NC[C@H]6C5)nc4)CC2)C3)C(C)(C)C)cc1 (single isomer, unassigned) [I-122] | 0.01 to 0.1 µM |
| C#Cc1ccc(CNC(=O)[C@@H]2C[C@@H](O)CN2C(=O)[C@@H](NC(=O)[C@H]2CCC3(CC2)C[C@H](N2CCC(c4cnc(N5CCN6c7cc(-c8ccccc8O)nnc7NC[C@H]6C5)nc4)CC2)C3)C(C)(C)C)c(OCCCOC)c1 (single isomer, unassigned) [I-130] | 0.01 to 0.1 µM |
| C#Cc1ccc(CNC(=O)[C@@H]2C[C@@H](O)CN2C(=O)[C@@H](NC(=O)N2CC3(CN(CC4CCN(c5cnc(N6CCc7[nH]c8nnc(-c9ccccc9O)cc8c7[C@H]6C)nc5)CC4)C3)C2)C(C)(C)C)cc1 | > 0.1 µM |
| C#Cc1ccc(CNC(=O)[C@@H]2C[C@@H](O)CN2C(=O)[C@@H](NC(=O)[C@H]2CCC3(CC2)C[C@H](N2CCN(c4cnc(N5CCN6c7cc(-c8ccccc8O)nnc7NC[C@H]6C5)nc4)CC2)C3)C(C)(C)CCO)c(Cl)c1 (single isomer, unassigned) [I-312] | > 0.1 µM |
| Cc1ncsc1-c1ccc(CNC(=O)[C@@H]2C[C@@H](O)CN2C(=O)C(c2cc(N3CC4(CC(N5CCC(c6cnc(N7CCc8[nH]c9nnc(-c%10ccccc%10O)cc9c8[C@@H]7C)nc6)CC5)C4)C3)no2)C(C)C)cc1 (stereo partly shown) | 0.01 to 0.1 µM |
| Cc1ncsc1-c1ccc(CNC(=O)[C@@H]2C[C@@H](O)CN2C(=O)C(c2cc(N3CCC(CCN4CCC(c5cnc(N6CCc7[nH]c8nnc(-c9ccccc9O)cc8c7[C@H]6C)nc5)CC4)CC3)no2)C(C)C)cc1 (stereo partly shown) | 0.01 to 0.1 µM |
| C#Cc1ccc(CNC(=O)[C@@H]2C[C@@H](O)CN2C(=O)[C@@H](NC(=O)N2CCC(N3CC4(CC(N5CCC(N6CCc7[nH]c8nnc(-c9ccccc9O)cc8c7[C@H]6C)CC5)C4)C3)CC2)C(C)(C)C)cc1 | > 0.1 µM |
| Cc1ncsc1-c1ccc(CNC(=O)[C@@H]2C[C@@H](O)CN2C(=O)C(c2cc(OC[C@H]3CC[C@@H](N4CCC(c5cnc(N6CCc7[nH]c8nnc(-c9ccccc9O)cc8c7[C@@H]6C)nc5)CC4)CC3)no2)C(C)C)cc1 (single isomer, unassigned) | 0.01 to 0.1 µM |

Looking up COc1cc(C(C(=O)N2C[C@H](O)C[C@H]2C(=O)NCC#Cc2ccccc2OCCCCN2CCC(c3cnc(N4CCN5c6cc(-c7ccccc7O)nnc6NC[C@H]5C4)nc3)CC2)C(C)C)on1 (stereo partly shown) , I see its DC50 listed as 0.001 to 0.01 µM

Looking up C#Cc1cnc(CNC(=O)[C@@H]2C[C@@H](O)CN2C(=O)C(c2cc(OCCN3CCC(N4CCC(N5CCC(CN6CCN7c8cc(-c9ccccc9O)nnc8NC[C@H]7C6)CC5)CC4)CC3)no2)C(C)C)c(OC)c1 (stereo partly shown) , I see its DC50 listed as > 0.1 µM

Looking up C#Cc1c(F)cc(CNC(=O)[C@@H]2C[C@@H](O)CN2C(=O)[C@@H](NC(=O)N2CC3(CC(N4CCC(c5cnc(N6CCc7[nH]c8nnc(-c9ccccc9O)cc8c7[C@H]6C)nc5)CC4)C3)C2)C(C)(C)C)cc1F , I see its DC50 listed as > 0.1 µM

Looking up C#Cc1ccc(CNC(=O)[C@@H]2C[C@@H](O)CN2C(=O)[C@@H](NC(=O)N2CC3(CC(N4CCC(c5cnc(N6CCc7[nH]c8nnc(-c9ccccc9O)cc8c7[C@H]6C)nc5)CC4)C3)C2)C(C)(C)CCN2CCOCC2)cc1 (single isomer, unassigned) , I see its DC50 listed as > 0.1 µM

Looking up C#Cc1ccc(CNC(=O)[C@@H]2C[C@@H](O)CN2C(=O)[C@@H](NC(=O)[C@H]2CCC3(CC2)C[C@H](N2CCC(c4cnc(N5CCN6c7cc(-c8ccccc8O)nnc7NC[C@H]6C5)nc4)CC2)C3)C(C)(C)C)c(OCCCN(C)C)c1 (single isomer, unassigned) [I-158] , I see its DC50 listed as 0.01 to 0.1 µM

Looking up C#Cc1ccc([C@H](C)NC(=O)[C@@H]2C[C@@H](O)CN2C(=O)[C@@H](NC(=O)N2CC3(CC(N4CCC(c5cnc(N6CCc7[nH]c8nnc(-c9ccccc9O)cc8c7[C@H]6C)nc5)CC4)C3)C2)C(C)(C)C)c(OC)c1 , I see its DC50 listed as > 0.1 µM
